- experimental-system: T1, SulfoCCK biotin peptide (human)
- T1 construct: also called sulfotyrosine CCK peptide
- T1 peptide: SHRISDRD[sY]MGWMDFGGK(Biotin)
- assay: ELISA, 50 nM mAb
Non-standard residues stand in square brackets, D forms with d. No end group written: not given here. *: point of attachment. Biotin = O=C1N[C@H]2[C@H](CS[C@H]2CCCCC(=O)*)N1; sY = N[C@@H](Cc1ccc(OS(=O)(=O)O)cc1)C(=O)O
For each record, write down the corresponding binding normalized to PSGL-1.

Past entries and their recorded results:
| binder | test-result |
| --- | --- |
| 01A04 (antibody, IgG4, V domains shown) VH: EVQLVQSGAEVKKPGASVKVSCKASGYTFTSYYIHWVRQAPGQGLEWMGIIRPSGGSTSYAQKFQGRVTMTRDTSTSTVYMELSSLRSEDTAMYYCARVGVGSFDYWGQGTLVTVSS VL: DIQMTQSPSTLSASVGDRVTITCRASQSVSNWLAWYQQKPGKAPKLLIYKASSLESGVPSRFSGSGSGTEFTLTISSLQPDDFATYYCQWFRTFGPGTKVDIK | 0.87 |
| 01A11 (antibody, IgG4, V domains shown) VH: EVKLLESGGGLVQPGGSLRLSCATSGFSFSDYWMSWVRQAPGKGLEWVASIKKDGSEKYYVDSVKGRFTISRDNAKNSLYVQMNSLRAEDTAIYYCVVFGAWGPGTLVTVSS VL: DIVMTQTPLSLPVTLGQPASISCRSGRSLVYSDGNTYLNWFQQRPGQSPRRLIYKVSNRDSGVPDRFSGGGSGTDFTLKISRVEAEDVAIYYCMQGTHWPPTFGQGTKLEIK | 0.63 |
| 03D01 (antibody, IgG4, V domains shown) VH: EVQLVQSGGGLVQPGGSLRLSCAATGFTVSRNYMTWVREAPGKGLEWVAGIYKSGTTSYIESVKGRFTISRDNSKNTLYLEMSRLRAEDTAVYYCAKSTSTWGQGTQVTVSS VL: DVVMTQSPVSLPVTLGQPASISCRSSRNLLYSNGNTYLNWFHQRPGQSPRRLIYKVSNQDSGVPDRFSGSGSGTDFTLKISRVEAEDVGVYYCMQGTHWPTTFGQGTRLEIK | 0.94 |
| 03B03 (antibody, IgG4, V domains shown) VH: EVQLVQSGGGLVQPGGSLRLSCAATGFTVSRNYMTWVREAPGKGLEWVAGIYKSGTTSYTESVKGRFTISRDNSKNTLYLEMSRLRAEDTAVYYCAKSTSTWGQGTQVTVSS VL: DIVMTQSPLSLPVTLGQPASISCRASQSPGYSDGNTYLNWFQQRPGQSPRRLIYKVSNRDPGVPDRFSGSGSGTDFTLKISRVEAEDVGVYYCMQATHWPSFGQGTRLEIK | 0.98 |

Quick request: binding normalized to PSGL-1 for each listed item, please.
1. 09A08 (antibody, IgG4, V domains shown) VH: QVQLVQSGAAVKKPGESLKISCKGSGYTFSNYWIGWVRQMPGKGLEWMGIIYPGDSDTRYSPSFQGQVTISADKSISTAYLQWSSLKASDTAMYYCARHIVGPPKSAFDIWGQGTMVTVSS VL: DIVMTQTPLSLPVTLGQPASISCSSSQGLQKRDGNTYLNWFQQRPGQSPRRLIYKVSNRDSGVPDRFSGSGSGTDFTLKISRVEAEDVGVYYCMQGTHWPWTFGQGTRVEIK
2. 07E07 (antibody, IgG4, V domains shown) VH: QVQLQQSGAEVKKPGASVKVSCKASGYTFTSYYMHWVRQAPGQGLEWMGIINTSSGSTKYAQRFQDRVTVTRDTSTTTVYMELNSLRSEDTAVYYCARGGRAYSGSFDNWGQGTLVTVSS VL: DVVMTQSPLSLPVTLGQPASISCRSSQSLVHRDGNTYFNWFQQRPGQSPRRLIYKVSNRDSGVPDRFSGSGSGTDFTLKISRVEAEDVGVYYCMQATHWPRTFGQGTKVEIK
3. 02G01 (antibody, IgG4, V domains shown) VH: EVQLVQSGAEVKKPGASVKVSCKASGYTFTSYGISWVRQAPGQGLEWMGWISAYNGNTNYAQKLQGRVTMTTDTSTSTAYMELRSLRSDDTAVYYCARVTRLPGGGYAFDIWGQGTMVTVSL VL: QSVLTQPPSASGTPGQRITISCSGSTSNIGNKHVYWYQQFPGAAPKLLIHNTNKRPSGVPDRFSGSKSGTSASLAISGLQSDDEADYYCAAWDGSLSAWVFGGGTKLTVL

1. 0.08
2. 0.75
3. 1.1
